assay: Cmax in Sprague-Dawley rat at 10 mg/kg, po; type: ADME, organism-based; set-up: dose 10 mg/kg, route oral; conditions: in vivo
Below is a list of entries, each paired with its recorded Cmax value.

[
  {
    "molecule": "CC(=O)N[C@H]1[C@H]([C@H](O)[C@H](O)CO)OC(C(=O)O)=C[C@@H]1N=C(N)N [ZANAMIVIR]",
    "Cmax": "60 ng/mL"
  },
  {
    "molecule": "CC(=O)N[C@H]1[C@H]([C@H](O)[C@H](O)CO)OC(C(=O)NCc2cccc(F)c2)=C[C@@H]1NC(=N)N",
    "Cmax": "260 nM"
  },
  {
    "molecule": "CCOC(=O)C1=C[C@@H](OC(CC)CC)[C@H](NC(C)=O)[C@@H](N)C1.O=P(O)(O)O [OSELTAMIVIR PHOSPHATE]",
    "Cmax": "30 ng/mL"
  }
]
